The measurements presented in this section are drawn from the supplement of paper PMC12669032.

Test system: Bifidobacterium longum subsp. longum
procedure-details: growth AUC relative to DMSO control (median of replicates) (fraction); higher = more growth (less inhibition), active = hit call of the paper;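 active = AUC reduced over 20% with Padj below 0.05 in at least 2 of 3 replicates; inactive = otherwise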
assay-conditions: 20 µM; 24 h
Pick from true for active, false for inactive when you respond.

- O=C=NC1CCC(CC2CCC(N=C=O)CC2)CC1 (centres undefined): false

Shift focus to the following entry.
Query: Identify the outcome logged in this assay for the molecule shown: CCCCOCCOC(=O)COc1ccc(Cl)cc1Cl
Result: false

###

Reported growth AUC values are given for each entry in this list.
System: Bacteroides thetaiotaomicron
procedure-details: growth AUC relative to DMSO control (median of replicates) (fraction); higher = more growth (less inhibition), active = hit call of the paper
assay-conditions: 20 µM; 24 h
Lab note: write the figure by itself, no unit.

- O=C(O)Cc1c(Cl)ccc(Cl)c1Cl: 1
- COc1cc(Cl)ccc1Oc1ccc(Cl)cc1Cl: 0.984

Query: Given the entry CC(=O)Oc1c(Cl)c(Cl)c(Cl)c(Cl)c1Cl , report its measured growth AUC.
Result: 0.565

Query: Given the entry Oc1ccccc1O , report its measured growth AUC.
Result: 1.03

###

Reported growth AUC values are given for each entry in this list.
Test system: Roseburia intestinalis
procedure-details: growth AUC relative to DMSO control (median of replicates) (fraction); higher = more growth (less inhibition), active = hit call of the paper
assay-conditions: 20 µM; 24 h
Lab note: write the figure by itself, no unit.

// known answers, use as guide
* CNc1nc(NC(C)C)nc(SC)n1 | 0.995
* Cc1cc(C)cc(O)c1 | 1.03
* CCc1ccc(C(c2ccc(CC)cc2)C(Cl)Cl)cc1 | 1
* CC1(C)C(=O)Oc2ccc(OS(C)(=O)=O)cc21 | 1.02
* CC[N+](CC)(CC(=O)Nc1c(C)cccc1C)Cc1ccccc1.O=C([O-])c1ccccc1 | 1.02
* CC(C)N(C(=O)C(=O)O)c1ccccc1 | 1.02

Would you kindly look at the next entry?
Query: Given the entry Cc1ccc2c(c1)[C@H](Nc1nc(N)nc(C(C)F)n1)[C@@H](C)C2 (some centres not stated) , report its measured growth AUC.
Result: 0.948

###

Tested on: Collinsella aerofaciens
procedure-details: growth AUC relative to DMSO control (median of replicates) (fraction); higher = more growth (less inhibition), active = hit call of the paper
assay-conditions: 20 µM; 24 h
Lab note: compare growth AUC against 1. Equal or greater, write Met. Smaller, write Not met.

Query: For this compound, is measured growth AUC 1 or higher? Cc1cccc(C)c1N(CCSCC(O)C(=O)[O-])C(=O)CO.[Na+] (configuration not stated)
Result: Not met

Query: For this compound, is measured growth AUC 1 or higher? COc1cccc(N(C)C(=S)Oc2cccc(C(C)(C)C)c2)n1
Result: Not met

Query: For this compound, is measured growth AUC 1 or higher? Cc1nn(C)c(Oc2ccccc2)c1/C=N/OCc1ccc(C(=O)OC(C)(C)C)cc1
Result: Not met

Query: For this compound, is measured growth AUC 1 or higher? c1ccc(Sc2ccccc2)cc1
Result: Met

Query: For this compound, is measured growth AUC 1 or higher? CCCCC(CC)CN1C(=O)C2C(C1=O)[C@H]1C=C[C@@H]2C1 (mixture of isomers)
Result: Met

###

System: Escherichia coli IAI1
procedure-details: growth AUC relative to DMSO control (median of replicates) (fraction); higher = more growth (less inhibition), active = hit call of the paper
assay-conditions: 20 µM; 24 h
outcome-measure: growth AUC
Lab note: write the figure by itself, no unit.

// known answers, use as guide
* CC(C)C(O)(c1ccc(OC(F)(F)F)cc1)c1cncnc1 (stereo not given) | 0.961
* O=C(O)[C@@H](S)[C@@H](S)C(=O)O | 1.03
* CC(C)N(C)S(=O)(=O)NC(=O)c1cc(-n2c(=O)cc(C(F)(F)F)[nH]c2=O)c(F)cc1Cl | 1
* CCCCCC(C)OC(=O)COc1ccc(Cl)c2cccnc12 (stereo not given) | 0.989

Query: Given the entry Br[C@@H]1CC[C@@H](Br)[C@@H](Br)CC[C@H](Br)[C@H](Br)CC[C@H]1Br , report its measured growth AUC.
Result: 0.968

###

Tested on: Fusobacterium nucleatum subsp. animalis
procedure-details: growth AUC relative to DMSO control (median of replicates) (fraction); higher = more growth (less inhibition), active = hit call of the paper
assay-conditions: 20 µM; 24 h
Lab note: compare growth AUC against 1. Equal or greater, write y. Smaller, write n.

• CN(C)C(=O)Nc1cc(C(C)(C)C)on1 = n
• CCOc1ccc(NC(=O)OC(C)C)cc1OCC = y
• CCNC(=O)[C@@H](C)OC(=O)Nc1ccccc1 = y
• CCc1cccc(C)c1N(C(=O)CS(=O)(=O)[O-])C(C)COC.[Na+] (stereo not given) = n
• CCN(CC)C(=O)c1cccc(C)c1 = y

Query: For this molecule, is measured growth AUC 1 or higher? Clc1ccc(CSc2ccc(Cl)cc2)cc1
Result: y

Query: For this molecule, is measured growth AUC 1 or higher? Cc1cc(C)cc(OCC(C)Nc2nc(N)nc(C(C)(C)F)n2)c1 (stereo not given)
Result: n

Query: For this molecule, is measured growth AUC 1 or higher? COC1CCC2(CC1)NC(=O)C(c1cc(C)ccc1C)=C2O (stereo not given)
Result: y

###

Tested on: Parabacteroides distasonis
procedure-details: growth AUC relative to DMSO control (median of replicates) (fraction); higher = more growth (less inhibition), active = hit call of the paper
assay-conditions: 20 µM; 24 h
Lab note: compare growth AUC against 1. Equal or greater, write condition met. Smaller, write condition not met.

For orientation, consider the following solved cases.
* CCOc1nc(F)cc2nc(S(=O)(=O)Nc3c(Cl)cccc3C(=O)OC)nn12 | condition met
* CC(C)([CH2][Sn]([CH2]C(C)(C)c1ccccc1)([CH2]C(C)(C)c1ccccc1)[O][Sn]([CH2]C(C)(C)c1ccccc1)([CH2]C(C)(C)c1ccccc1)[CH2]C(C)(C)c1ccccc1)c1ccccc1 | condition met
* Cc1cccc(C)c1N(CCSCC(O)C(=O)[O-])C(=O)CO.[Na+] (configuration not stated) | condition not met
* O=C(Nc1ccc(F)cc1-c1ccc(Cl)c(Cl)c1)c1cn[nH]c1C(F)F | condition not met
* CCN(CC)C(=O)SCc1ccccc1Cl | condition not met

Shift focus to the following entry.
Query: For this compound, is measured growth AUC 1 or higher? COc1cc(OC)nc(Sc2cccc3c2C(=O)OC3C)n1 (configuration not stated)
Result: condition not met

###

Tested on: Parabacteroides distasonis
procedure-details: growth AUC relative to DMSO control (median of replicates) (fraction); higher = more growth (less inhibition), active = hit call of the paper;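 active = AUC reduced over 20% with Padj below 0.05 in at least 2 of 3 replicates; inactive = otherwise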
assay-conditions: 20 µM; 24 h
Pick from active, inactive when you respond.

For orientation, consider the following solved cases.
* NC(=O)C1CO1 (configuration not stated) | inactive
* Clc1ccc(C(c2ccccc2Cl)C(Cl)Cl)cc1 (configuration not stated) | active
* CCCNCCOc1c(Cl)cc(Cl)cc1Cl | inactive

Query: Identify the outcome logged in this assay for the molecule shown: Nc1ccc(S(=O)(=O)Nc2cnc3ccccc3n2)cc1
Result: inactive

###

Test system: Collinsella aerofaciens
procedure-details: growth AUC relative to DMSO control (median of replicates) (fraction); higher = more growth (less inhibition), active = hit call of the paper
assay-conditions: 20 µM; 24 h
Lab note: compare growth AUC against 1. Equal or greater, write y. Smaller, write n.

• C=C1C[C@]23C[C@@]1(O)CC[C@H]2[C@@]12C=C[C@H](O)[C@@](C)(C(=O)O1)[C@H]2[C@@H]3C(=O)O = n

Query: For this compound, is measured growth AUC 1 or higher? C=O
Result: y

Query: For this compound, is measured growth AUC 1 or higher? Clc1ccc(C(c2ccccc2Cl)C(Cl)Cl)cc1 (configuration not stated)
Result: n

Query: For this compound, is measured growth AUC 1 or higher? CC1COc2ccccc2N1C(=O)C(Cl)Cl (configuration not stated)
Result: n

###

Tested on: Akkermansia muciniphila
procedure-details: growth AUC relative to DMSO control (median of replicates) (fraction); higher = more growth (less inhibition), active = hit call of the paper
assay-conditions: 20 µM; 24 h
Reported growth AUC values are given for each entry in this list.

// known answers, use as guide
• COc1nc(NC(=O)NS(=O)(=O)c2ccccc2C(F)(F)F)nc(C(F)(F)F)n1 = 1.06 (inactive)
• COc1cc(Cl)ccc1Oc1ccc(Cl)cc1Cl = 1.03 (inactive)
• CCOCCc1ccc(OCCNc2ncnc(CC)c2Cl)c(C)c1C = 0.937 (inactive)
• CCc1ccc(O)cc1 = 0.993 (inactive)
• Br[C@@H]1CC[C@@H](Br)[C@@H](Br)CC[C@H](Br)[C@H](Br)CC[C@H]1Br = 1.04 (inactive)
• CC(C)([CH2][Sn]([CH2]C(C)(C)c1ccccc1)([CH2]C(C)(C)c1ccccc1)[O][Sn]([CH2]C(C)(C)c1ccccc1)([CH2]C(C)(C)c1ccccc1)[CH2]C(C)(C)c1ccccc1)c1ccccc1 = 1.07 (inactive)
• COC(=O)Cc1cccc2ccccc12 = 1.01 (inactive)
• COCCCNc1nc(NC(C)C)nc(SC)n1 = 0.847 (inactive)
• CCSC(=O)N(CC)CC = 1.01 (inactive)

Would you kindly look at the next entry?
Query: Given the entry O=c1cccc2n1CCn1c-2cccc1=O , report its measured growth AUC.
Result: 1.11 (inactive)
